Documented inhibition across a set of molecules
assayInfo: TLR3 IRF3 reporter activation blockers – cell-based, poly I:C stimulus, luciferase, 10K MLSCN set, primary screen (AID 602277)
conditionInfo: HEK293-TLR3 RL24 IRF3 luciferase reporter, at 10 µM, stronger effect = higher value

molecule: O=C(O)c1[nH]nc2c1COc1ccccc1-2
inhibition, %: 22.3

molecule: CC(C)OC(=O)CSc1nnnn1-c1ccc2c(c1)OCCO2
inhibition, %: -97.9

molecule: O=C1CC(c2ccc(Cl)cc2)n2nc(N3C(=O)c4ccccc4C3=O)nc2N1 (centres undefined)
inhibition, %: 24.4

molecule: COC(=O)c1c(N)nc(C)n1-c1ccc(OC)cc1
inhibition, %: 9.69

molecule: Cc1ccc(OCC(=O)NCCN2CCCC2)cc1
inhibition, %: 28

molecule: CC1(C)Cc2noc(N)c2C(C)(C)N1O
inhibition, %: 22.1

molecule: O=C(NCc1ccco1)c1cc2n(n1)C(C(F)(F)F)CC(c1ccc(F)cc1)N2 (centres undefined)
inhibition, %: 12.1

molecule: Cc1cccc2cc(C#N)c(NCCNC(=O)NC3CCCCC3)nc12
inhibition, %: 1.15

molecule: CCn1c(SCC(=O)Nc2nnc(C)s2)nnc1-c1ccncc1
inhibition, %: 0.883

molecule: Cc1ccc(SCCNS(=O)(=O)c2ccc(F)cc2)cc1
inhibition, %: 12.7

molecule: COc1ccc(Cn2nnnc2C(c2ccncc2)N2CCOCC2)cc1 (centres undefined)
inhibition, %: 9.52

molecule: CCOC(=O)C1=C(CC)Nc2ccccc2N=C1NC(=O)Nc1ccccc1OC
inhibition, %: 38.4

molecule: NC(=O)c1c(-c2ccccc2)oc2ccc(O)cc12
inhibition, %: -13.7

molecule: CCOc1ccc(C(=O)N(CN2CCCC2=O)c2ccc(C)cc2)cc1
inhibition, %: -43.9

molecule: O=C(NC1(C(F)(F)F)NC(=O)N(Cc2ccco2)C1=O)c1cccnc1 (centres undefined)
inhibition, %: 12.8

molecule: Cc1cc(C)c2c(n1)sc1c(N3CCOCC3)ncnc12
inhibition, %: -3.16

molecule: COc1ccc(NC(=O)Nc2cc(C)ccc2OC)cc1
inhibition, %: -80.2

molecule: O=S(=O)(c1ccc(OCC(O)CN2CCN(c3ccccc3)CC2)cc1)N1CCOCC1 (centres undefined)
inhibition, %: -5.1

molecule: COc1cc(NC(=O)Cc2nn(C)c(=O)c3ccccc23)cc(OC)c1
inhibition, %: -56.4

molecule: CCOc1ccc(-c2nnc(N(CC)C(=O)C3CCC3)s2)cc1
inhibition, %: -80.4

molecule: CN(C)S(=O)(=O)c1ccc(C(=O)N2CCC(c3nc4ccccc4o3)CC2)cc1
inhibition, %: 12.2

molecule: NC(=O)SCC(=O)Nc1cccc(Cl)c1
inhibition, %: 15.3

molecule: CCC(=O)N1CCCc2cc(S(=O)(=O)N3CCCc4ccccc43)ccc21
inhibition, %: 34

molecule: O=C1c2ccccc2C(=O)N1OCc1ccccc1
inhibition, %: 21.5
